Exercise: for every item that follows, state its recorded growth.
test system: DU-145 prostate; assay: NCI-60 one-dose screen, 48 h (100 = growth as untreated, 0 = no growth, -100 = all killed); conditions: 10 µM unless noted
The panel holds about 83,000 compounds, 20% with a hit somewhere; the sample as a whole holds those more often.
Numbers only, in %.

Some compounds with known growth results, for comparison:
CCCCC/C(=C\c1ccccc1)C1OC(C)C(C)O1 (configuration not stated) : 103
C#CCC(C)(O)/C=C/C1=C(C)CCCC1(C)C (configuration not stated) : 103
O=C(NO)c1ccc(Cn2c(=O)n(-c3ccccc3)c(=O)c3ccccc32)cc1 : 21.9
COc1ccc(O)c(-c2cc(-c3ccc(Cl)cc3)c(C#N)c(=O)[nH]2)c1 : 102
Cc1ccnc2c(OCc3ccccc3)cccc12 : 97.1

Look up growth for the entries below, preserving their order.
1. COc1cc(C(=O)/C=C/c2cc(-c3ccc4c(c3)OCO4)n[nH]2)cc(OC)c1OC
2. N#CC1C(=N)Cc2ccccc2-c2ccccc21 (configuration not stated)
3. Oc1ccc(Nc2ccccc2)cc1
4. CCCCCCCN(CCCCCCC)C(=N)c1ccnc2ccccc12
5. CCN1CCN(C(=O)[C@@]2(C)CC[C@]3(C)CC[C@]4(C)C(=CC(=O)[C@@H]5[C@@]6(C)CC[C@H](OCCC#N)C(C)(C)[C@@H]6CC[C@]54C)[C@@H]3C2)CC1
6. O=C1Nc2ccccc2/C1=C/c1cn(CCCn2c3ccccc3c(=O)c3ccccc32)c2ccccc12
7. Nc1ncnc2nc(Br)[nH]c12

Result ::
1: 0.359; 2: 75.8; 3: 94.6; 4: 1.08; 5: 97; 6: 102; 7: 102

Look up growth for the entries below, preserving their order.
1. Fc1ccc(Nc2nc(Nc3ccc(-c4nc5ccccc5[nH]4)cc3)nc(N3CCCC3)n2)cc1
2. COc1ccc(OC)c(-c2c(C#N)c(-c3ccco3)nc3c2c(-c2ccccc2)nn3-c2ccccc2)c1
3. COc1ccc(-c2nc3ncccn3c2-c2nc3ccc(Br)cc3[nH]2)cc1
4. CCCCCC1CCCCN1C(=O)OCC (configuration not stated)
5. COC(=O)[C@]12CC[C@@H](C)[C@H](C)[C@@H]1C1=CC[C@@H]3[C@@]4(C)C[C@@H](OC(C)=O)[C@H](OC(C)=O)[C@@](C)(COC(C)=O)[C@@H]4[C@H](O)C[C@@]3(C)[C@]1(C)CC2
6. COc1ccc(-c2nc(SCC(=O)Nc3ccc(C(C)=O)cc3)[nH]c(=O)c2C#N)cc1

Result ::
1: 93.3; 2: 102; 3: 94.1; 4: 105; 5: 20.3; 6: 106

----------
tested on: RPMI-8226 leukemia; test: NCI-60 one-dose screen, 48 h (100 = growth as untreated, 0 = no growth, -100 = all killed); conditions: 10 µM unless noted
This is part of a sample that, as a whole, favours compounds with a hit. Of some 83,000 tested, about 20% had one in any assay.
Checkbox rule: growth lower than 70% = condition met; growth not lower than 70% = condition not met.

Below, 4 compounds whose answers are already recorded.
CC[C@H](CC[C@@H](C)[C@H]1CC[C@H]2[C@@H]3/C(=C/c4cccnc4)C(=O)C4=CC(=O)CC[C@]4(C)[C@H]3CC[C@]12C)C(C)C : condition not met
CC1(C)NCCC[C@]2(C)[C@H]3CC[C@@H]4[C@H]5[C@H](C(=O)/C=C/c6ccccn6)CC[C@]5(CO)CC[C@@]4(C)[C@]3(C)CC[C@@H]12 : condition met
C/C(=N\Nc1cc(C)c2cc(C)ccc2n1)c1ccccn1 : condition met
COc1ccc(-c2cc(-c3cccs3)n(N=O)c(=O)c2C#N)cc1 : condition not met

We now examine a further compound.
Query :: Strictly below 70%: is that where growth of `Cc1ccc(-c2nc([P+](c3ccccc3)(c3ccccc3)c3ccccc3)c(N3CCOCC3)o2)cc1` sits?
Result :: condition met

----------
system: HS 578T breast; test: NCI-60 one-dose screen, 48 h (100 = growth as untreated, 0 = no growth, -100 = all killed); details: 10 µM unless noted
Compounds without any hit were thinned out: in the full panel of roughly 83,000, 20% have a hit.
Checkbox rule: growth lower than 80% = rule met; growth not lower than 80% = rule not met.

Below, 3 molecules whose answers are already recorded.
O=C(O)c1cccc2c1C(=O)N(c1ccc3c(c1)Cc1ccccc1-3)C2=O : rule not met
O=C1OC(c2ccc(Cl)c(Cl)c2)=C/C1=C/c1cccc([N+](=O)[O-])c1 : rule not met
C#Cc1cc2c(N)c(C(=O)c3cc(OC)c(OC)c(OC)c3)[nH]c2cc1OC : rule met

Query :: Strictly below 80%: is that where growth of `O=C(N/N=C\c1c(O)ccc2ccccc12)C1CC1` sits?
Result :: rule met

Query :: Strictly below 80%: is that where growth of `C=C(C)[C@@H]1CC[C@]2(CN)CC[C@]3(C)[C@H](CC[C@@H]4[C@@]5(C)CCC(=O)NC(C)(C)[C@@H]5CC[C@]43C)[C@@H]12` sits?
Result :: rule not met

Query :: Strictly below 80%: is that where growth of `Cc1ccc2c(c1)c1nc3cc(C)c(C)cc3nc1n2CCN(C)C` sits?
Result :: rule met

Query :: Strictly below 80%: is that where growth of `COc1ccc(O)c(-c2cc(-c3ccc(Cl)cc3)c(C#N)c(=O)[nH]2)c1` sits?
Result :: rule met

Query :: Strictly below 80%: is that where growth of `COC(=O)CCCCCn1c2ccccc2c2c3c(c4c5ccccc5[nH]c4c21)C(=O)N(O)C3=O` sits?
Result :: rule not met

Query :: Strictly below 80%: is that where growth of `Oc1cc(/C=C/c2nc(N3CCOCC3)c3cc(Cl)c(Cl)cc3n2)cc(O)c1O` sits?
Result :: rule not met

Query :: Strictly below 80%: is that where growth of `COc1ccc(-c2n[nH]nc2-c2cc3ccccc3s2)cc1O` sits?
Result :: rule met

Query :: Strictly below 80%: is that where growth of C/C(=N\NC(=O)C(C)SC(C)C(=O)N/N=C(\C)c1cccnc1)c1cccnc1 (centres undefined) sits?
Result :: rule not met

----------
system: NCI-H226 lung; assay: NCI-60 one-dose screen, 48 h; settings: 10 µM unless noted
This is part of a sample that, as a whole, favours compounds with a hit. Of some 83,000 tested, about 20% had one in any assay. Calls of active or inactive are those of the source. Rule for the calls: active = growth percent below 10; inactive = the rest.
The categories you may choose from are Y (active), N (inactive)

CCSc1sc(-c2ccc(C)cc2)nc1[P+](c1ccccc1)(c1ccccc1)c1ccccc1 : Y

Query :: In this assay, the call recorded for `C[C@@H]1CCCCCCCCC[C@H](O)C(=O)C[C@@H](SC[C@@H](O)C(=O)O)C(=O)O1` was what?
Result :: N

Query :: In this assay, the call recorded for `COc1cnc2c(c1)C(=O)c1c-2n(CCCNC2=NCCS2)c(=O)c2cc([N+](=O)[O-])ccc12` was what?
Result :: Y

Query :: In this assay, the call recorded for `Cc1cc(Nc2ccc(F)cc2)nc(N2CCN(c3ccnc4cc(Cl)ccc34)CC2)n1` was what?
Result :: N

Query :: In this assay, the call recorded for `C=CC(=O)N[C@H](Cc1ccc(-c2cc(Cl)cc(Cl)c2)cc1)[C@H](O)[C@@H](O)C(=O)O` was what?
Result :: N

Query :: In this assay, the call recorded for `COc1ccc2c(c1)c(-c1nc(-c3c[nH]c4ncccc34)cs1)cn2C` was what?
Result :: N

Query :: In this assay, the call recorded for `Fc1ccc2c(c1)c(-c1nc(-c3c[nH]c4ncccc34)cs1)cn2CCCN1CCCCC1` was what?
Result :: N

Query :: In this assay, the call recorded for `Cc1cc(N2CCOCC2)nc(N(CCCNc2ccnc3cc(Cl)ccc23)Cc2ccco2)n1` was what?
Result :: N

----------
system: SNB-19 CNS; assay: NCI-60 one-dose screen, 48 h (100 = growth as untreated, 0 = no growth, -100 = all killed); details: 10 µM unless noted
Compounds without any hit were thinned out: in the full panel of roughly 83,000, 20% have a hit.
Reported Property: growth (%)
One number for each entry, in %.

Some compounds with known growth results, for comparison:
O=C(O[C@@H]1Cc2c(O)cc(O)cc2O[C@@H]1c1cc(O)c(O)c(O)c1)c1cc(O)c2c(c1)OCO2 : 104
CCCCC/C(=C\c1ccccc1)C1OC(C)C(C)O1 (stereo not drawn) : 98.6

Query :: For the compound `COc1cc2c(cc1-c1c(C)noc1C)ncc1nc(C3CCCCC3)n([C@@H](C)COC(F)F)c12` , give its measured growth value.
Result :: 45.6

----------
tested on: UACC-257 melanoma; experiment: NCI-60 one-dose screen, 48 h; conditions: 10 µM unless noted
Compounds without any hit were thinned out: in the full panel of roughly 83,000, 20% have a hit. Activity calls are given as the source filed them. The calls were made as follows: active = growth percent below 10; inactive = the rest.
The categories you may choose from are active, inactive

CCOC(=O)C1OC1(c1ccccc1)c1ccccc1 (stereo not drawn) : inactive

Query :: In this assay, the call recorded for `COc1ccc(C(=O)c2ccc(C)cc2)c(OC)c1OC` was what?
Result :: inactive

Query :: In this assay, the call recorded for `C=C(C)[C@@H]1CC[C@]2(C(=O)O)CC[C@]3(C)[C@H](CC[C@@H]4[C@@]5(C)C/C(=C/c6ccc(OC)cc6)C(=O)C(C)(C)[C@@H]5CC[C@]43C)[C@@H]12` was what?
Result :: inactive

Query :: In this assay, the call recorded for `COc1ccc(NC(=S)N/N=C/c2ccccc2SSCCC(=O)OC[C@H]2O[C@H](O)[C@H](O)[C@@H](O)[C@@H]2O)cc1` was what?
Result :: inactive

Query :: In this assay, the call recorded for `C[C@@H](C(=O)O)c1ccc2c3cc(Cl)ccc3n(Cc3cc(=O)oc4ccc(Cl)cc34)c2c1` was what?
Result :: inactive

Query :: In this assay, the call recorded for `Cc1cc(N(CCNc2ccnc3cc(Cl)ccc23)Cc2ccco2)nc(Cl)n1` was what?
Result :: active

Query :: In this assay, the call recorded for CCN1CCN(C(=O)[C@@]2(C)CC[C@]3(C)CC[C@]4(C)C(=CC(=O)[C@@H]5[C@@]6(C)CC[C@H](OC7C[C@@H](O)[C@@H](O)C(C)O7)C(C)(C)[C@@H]6CC[C@]54C)[C@@H]3C2)CC1 (stereo partly drawn) was what?
Result :: inactive

Query :: In this assay, the call recorded for `O=C1NC(=Nc2ccc(S(=O)(=O)Nc3nccs3)cc2)S/C1=C\c1coc2ccccc2c1=O` was what?
Result :: inactive

Query :: In this assay, the call recorded for `C=CC(=O)N[C@H](Cc1ccc(-c2cc(Cl)cc(Cl)c2)cc1)[C@H](O)[C@@H](O)C(=O)O` was what?
Result :: inactive

Just for reference, PubChem BioAssay (NCI) is where these values come from.
